measuredTarget: human GLP-1 receptor (human, UniProt P43220)
assayText: displacement of [125I]-GLP-1-(7-36)NH2 from membranes with human GLP-1 receptor, SPA, low HSA (0.001%)
*1 amine or outer side, *2 acyl side, *3 side chain or, on linkers, in order; H or OH if unused. Where no end group is shown, it is not given here. Side-chain parts run from the residue outwards. [ ]: non-standard residue; d: D form. The star is where a group is joined. Undecanoyl(11-OPh(4-COOH)) = O=C(O)c1ccc(OCCCCCCCCCCC(=O)*)cc1; Decanoyl(10-O(3-COOH-Ph)) = O=C(O)c1cccc(OCCCCCCCCCC(=O)*)c1; γGlu = O=C(O)[C@H](CCC(=O)[*:2])N[*:1]; C14 diacid = O=C(O)CCCCCCCCCCCCC(=O)*; AEEA = NCCOCCOCC(=O)O; Aib = CC(C)(N)C(=O)O
# maps each entry to its pIC50
Units for pIC50: none; it is -log10 of a concentration expressed in mol/L.

# input Find the recorded pIC50 belonging to HGEGTFTSDVSSYLEEQAAREFIAWLVRGK([AEEA-AEEA-γGlu-Undecanoyl(11-OPh(4-COOH))])K([AEEA-AEEA-γGlu-Undecanoyl(11-OPh(4-COOH))]) [GLP-1 derivative of Example 17] and report it.
# output 9.05

# input Find the recorded pIC50 belonging to H[Aib]EGTFTSDVSSYLEEQAAREFIAWLVRGKK (not fully specified (residues 30, 31)) [GLP-1 derivative of Example 1] and report it.
# output 9.68

# input Find the recorded pIC50 belonging to H[Aib]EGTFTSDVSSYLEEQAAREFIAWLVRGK([AEEA-AEEA-γGlu-Decanoyl(10-O(3-COOH-Ph))])K([AEEA-AEEA-γGlu-Decanoyl(10-O(3-COOH-Ph))]) [GLP-1 derivative of Example 15] and report it.
# output 9.42

# input Find the recorded pIC50 belonging to H[Aib]EGTFTSDVSSYLEEQAAREFIEWLVRGK([AEEA-AEEA-γGlu-Decanoyl(10-O(3-COOH-Ph))])K([AEEA-AEEA-γGlu-Decanoyl(10-O(3-COOH-Ph))]) [GLP-1 derivative of Example 27] and report it.
# output 9.18

# input Find the recorded pIC50 belonging to H[Aib]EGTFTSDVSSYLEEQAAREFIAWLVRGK([AEEA-AEEA-γGlu-γGlu-C14 diacid])K([AEEA-AEEA-γGlu-γGlu-C14 diacid]) [GLP-1 derivative of Example 21] and report it.
# output 9.38

New cases:
# input Find the recorded pIC50 belonging to H[Aib]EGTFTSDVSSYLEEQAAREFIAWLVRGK([AEEA-AEEA-AEEA-AEEA-γGlu-C14 diacid])K([AEEA-AEEA-AEEA-AEEA-γGlu-C14 diacid]) [GLP-1 derivative of Example 20] and report it.
# output 9.09
